Molecular target: P2Y12 receptor (Homo sapiens, UniProt Q9H244)
Construct: expressed in transfected cells
Sequence (Q9H244 whole entry): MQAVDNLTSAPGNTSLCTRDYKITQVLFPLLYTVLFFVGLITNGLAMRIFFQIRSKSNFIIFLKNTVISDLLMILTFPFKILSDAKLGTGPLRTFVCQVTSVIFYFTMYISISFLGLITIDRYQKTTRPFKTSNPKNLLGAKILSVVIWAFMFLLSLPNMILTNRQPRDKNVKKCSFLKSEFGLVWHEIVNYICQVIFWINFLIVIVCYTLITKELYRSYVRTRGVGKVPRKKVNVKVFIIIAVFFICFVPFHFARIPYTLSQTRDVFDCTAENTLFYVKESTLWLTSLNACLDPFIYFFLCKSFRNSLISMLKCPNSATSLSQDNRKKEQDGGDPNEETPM
Assay: Whole cell receptor binding assay, 2-MeS[3H]-ADP
Conditions: HEK 293 cells stably transfected with P2Y12; 2-MeS[3H]-ADP 3 nM; 30 min at 37° C.; read-out: Inhibition of Receptor Binding (IC50 μM)
assay endpoint: IC50 (µM)

In the examples that follow, each entry is paired with its recorded IC50.
>>> df
                                   molecule                           subject_of_test  assay_endpoint  readout_unit  value
0  CCCSc1nc(N[C@@H]2C[C@H]2c2ccccc2)c2nnn([C@@H]3C[C@H](Cn4ccnn4)[C@@H](O)[C@H]3O)c2n1 (mixture of isomers)  P2Y12 receptor (Homo sapiens, UniProt Q9H244)            IC50            µM  0.134
1  CCCCNc1nc(SCCC)nc2c1nnn2[C@@H]1C[C@H](C2=NCCN2)[C@@H](O)[C@H]1O  P2Y12 receptor (Homo sapiens, UniProt Q9H244)            IC50            µM   4.61

1: CCCSc1nc(N[C@@H]2C[C@H]2c2ccccc2)c2nnn([C@@H]3C[C@H](Cn4ccnc4)[C@@H](O)[C@H]3O)c2n1 (mixture of isomers)
2: CCCSc1nc(NCC(F)(F)F)c2nnn([C@@H]3C[C@H](c4nnn[nH]4)[C@@H](O)[C@H]3O)c2n1
Exercise: Dear colleague, could you let me know whether 1 or 2 has the lower recorded IC50? Thanks. Answer format: the label of the selected item.
Solution: 1
(1: 0.26 µM, 2: 0.665 µM)
